Value source: ChEMBL document CHEMBL3797085

# protocol_details: Cytotoxicity against HEK293 cells assessed as cell viability at 50 uM after 24 hrs by Alamar Blue assay relative to control
# Format: cell-based
# condition_parameters: human, read-out: Activity
measure: viability at 24 h, 50 µM (%)

smiles_data | recorded_measurement
COc1ccc(C(=O)NO)cc1S(=O)(=O)Nc1ccc(C)cc1 | 80.2
O=C(NO)c1ccc(Cl)c(NC(=O)c2ccc([N+](=O)[O-])cc2)c1 | 79.1
O=C(NO)c1ccc(Cl)c(NC(=O)c2ccc(Cl)cc2)c1 | 81.6
